- Tested on: 186277-243-T-J2-PDC complex spheroids, viability;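 further: spheroids exposed to compounds for 7 days before viability read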
- testDetails: Anticancer human tumor 186277-243-T-J2-PDC patient-derived colon adenocarcinoma cell line growth inhibition [RAS]
- runParameters: second compound 1 µM; first compound 3.16 µM; stronger effect = lower value
measuredMetric: viability, T/C (%)
The answer is to be given in %; state only the numeric part.

Consider the following illustrative entries.
CCC(CC)c1cc(NC2CCC(N)C2)n2nccc2n1 (stereo not given) + C=CC(=O)N1CCN(c2nc(OCC3CCCN3C)nc3c(F)c(-c4nc(N)cc(C)c4C(F)(F)F)c(Cl)cc23)C(C)C1    2.87
CC(C)NCC(C(=O)N1CCN(c2ncnc3c2C(C)CC3O)CC1)c1ccc(Cl)cc1 (stereo not given) + C#Cc1c(F)ccc2cc(O)cc(-c3ncc4c(N5CC6CCC(C5)N6)nc(OCC56CCCN5CC(F)C6)nc4c3F)c12    4.08
CC(Nc1ccc2c(c1)OCCn1cc(N3C(=O)OCC3C(F)F)nc1-2)C(N)=O (stereo not given) + C#Cc1c(F)ccc2cc(O)cc(-c3ncc4c(N5CC6CCC(C5)N6)nc(OCC56CCCN5CC(F)C6)nc4c3F)c12    1.11
NC1c2ccccc2OC12CCN(c1cnc3c(N4CCCc5ncccc54)n[nH]c3n1)CC2 (stereo not given) + C#Cc1c(F)ccc2cc(O)cc(-c3ncc4c(N5CC6CCC(C5)N6)nc(OCC56CCCN5CC(F)C6)nc4c3F)c12    4.48
CC(Nc1ccc2c(c1)OCCn1cc(N3C(=O)OCC3C(F)F)nc1-2)C(N)=O (stereo not given) + C=CC(=O)N1CCN(c2nc(OCC3CCCN3C)nc3c(F)c(-c4nc(N)cc(C)c4C(F)(F)F)c(Cl)cc23)C(C)C1    41.5
Cc1nc(N2CCC3(CC2)COC(C)C3N)c(CO)nc1Sc1ccnc(N)c1Cl (stereo not given) + C=CC(=O)N1CCN(c2nc(OCC3CCCN3C)nc3c(F)c(-c4nc(N)cc(C)c4C(F)(F)F)c(Cl)cc23)C(C)C1    92.6

Returns the measured viability, T/C for the input compound. Input: Cc1nc(N2CCC3(CC2)COC(C)C3N)c(CO)nc1Sc1ccnc(N)c1Cl (stereo not given) + C#Cc1c(F)ccc2cc(O)cc(-c3ncc4c(N5CC6CCC(C5)N6)nc(OCC56CCCN5CC(F)C6)nc4c3F)c12 6.45

Returns the measured viability, T/C for the input compound. Input: CC1(O)CCCC1n1c(=O)c(C(F)F)cc2cnc(NC3CCN(S(C)(=O)=O)CC3)nc21 (stereo not given) + C=CC(=O)N1CCN(c2nc(OCC3CCCN3C)nc3c(F)c(-c4nc(N)cc(C)c4C(F)(F)F)c(Cl)cc23)C(C)C1 80.7

Returns the measured viability, T/C for the input compound. Input: CC(=O)OC12COC1CC(O)C1(C)C(=O)C(O)C3=C(C)C(OC(=O)C(O)C(NC(=O)OC(C)(C)C)c4ccccc4)CC(O)(C(OC(=O)c4ccccc4)C21)C3(C)C (stereo not given) + C#Cc1c(F)ccc2cc(O)cc(-c3ncc4c(N5CC6CCC(C5)N6)nc(OCC56CCCN5CC(F)C6)nc4c3F)c12 5.21

Returns the measured viability, T/C for the input compound. Input: C[C@@H](NC(=O)c1ncnc(N)c1Cl)c1ncc(C(=O)Nc2cc(C(F)(F)F)c(Cl)cn2)s1 + C#Cc1c(F)ccc2cc(O)cc(-c3ncc4c(N5CC6CCC(C5)N6)nc(OCC56CCCN5CC(F)C6)nc4c3F)c12 18.8
